experiment: Viscosity of aqueous solution; assay type: physicochemical
ATTRIBUTE MEASURED: Viskosität bei 37°C und 300 mg I/ml

Worked set:
COMPOUND	Viskosität bei 37°C und 300 mg I/ml
O=C(NCCO)c1c(I)c(C(=O)NCC(O)CO)c(I)c(N(CC(O)CO)C(=O)C(O)C(=O)N(CC(O)CO)c2c(I)c(C(=O)NCCO)c(I)c(C(=O)NCC(O)CO)c2I)c1I (centres unmarked)	7,8 mPa·s
O=C(NCCO)c1c(I)c(C(=O)NCC(O)CO)c(I)c(N(CC(O)CO)C(=O)CC(=O)N(CC(O)CO)c2c(I)c(C(=O)NCCO)c(I)c(C(=O)NCC(O)CO)c2I)c1I (centres unmarked)	6,8 mPa·s
CN(C(=O)C(=O)C(=O)N(C)c1c(I)c(C(=O)NCC(O)CO)c(I)c(C(=O)NCC(O)CO)c1I)c1c(I)c(C(=O)NCC(O)CO)c(I)c(C(=O)NCC(O)CO)c1I (centres unmarked)	10,9 mPa·s

Exam item: May I ask what Viskosität bei 37°C und 300 mg I/ml has been recorded for CC(=O)N(CC(O)CN(C(C)=O)c1c(I)c(C(=O)NCC(O)CO)c(I)c(C(=O)NCC(O)CO)c1I)c1c(I)c(C(=O)NCC(O)CO)c(I)c(C(=O)NCC(O)CO)c1I (centres unmarked) [IODIXANOL, Iodixanol, reference compound] ?
Marked response: 8,7 mPa·s

Exam item: And what about the compound O=C(NCCO)c1c(I)c(C(=O)NCC(O)CO)c(I)c(N(CCO)C(=O)CC(=O)N(CCO)c2c(I)c(C(=O)NCCO)c(I)c(C(=O)NCC(O)CO)c2I)c1I (centres unmarked) ?
Marked response: 7,5 mPa·s
